// provenance: PubChem BioAssay AID1159580

Test: chemical genetic growth profiling, strain panel (AID 1159580);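 further: tested at 20 µM; growth read once vehicle control cultures reached saturation at 30 °C; lower values mean less growth of the strain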
Conditions: S. cerevisiae deletion strains, growth OD, locus YOR070C, strain gyp1
The whole screen tested about 5,500 compounds, of which about 2,000 (36%) were called active. About 18% were inconclusive and are not listed. No stated cut-off is given here; in the data, active means normalized growth mostly below about 0.91 (no sharp cut-off); inconclusive means no clear call, values can overlap the other calls; inactive means mostly above about 0.92. This is one part of the list.
Possible outcomes: active, inactive

>>> label_value("C1N2CN3CN1CN(C2)C3")
"inactive"
>>> label_value("CC(=O)O[C@H]1CC[C@@]2(C)C(C[C@@H](OC(C)=O)[C@]3(C)C2CC[C@@]2(C)[C@H](c4ccoc4)OC(=O)[C@H]4O[C@]423)C1(C)C (stereo partly drawn)")
"inactive"
>>> label_value("Cc1cccc(C)c1NC(=O)C1CCCCN1C (stereo not drawn)")
"inactive"
>>> label_value("CN(C/C=C/C#CC(C)(C)C)Cc1cccc2ccccc12")
"active"
>>> label_value("Clc1ccccc1CN1CCc2sccc2C1")
"inactive"
>>> label_value("CC(C)=CC1C(C(=O)OCc2cccc(Oc3ccccc3)c2)C1(C)C (stereo not drawn)")
"inactive"
>>> label_value("NCCCNCCSP(=O)(O)O")
"inactive"
>>> label_value("C=C[C@@]1(C)CC(=O)[C@@]2(O)[C@](C)(O1)[C@@H](OC(C)=O)[C@@H](O)C1C(C)(C)CC[C@H](O)[C@@]12C (stereo partly drawn)")
"inactive"
